Please respond with reported Post-emerge Herbicidal Activity CASOB for every item in the list.
# Tested on: sicklepod (Cassia obtusifolia, CASOB)
# measurementDescription: Post-emerge test, greenhouse herbicide activity screening
# Format: in vivo
# condition: post-emerge, 250 g ai/ha, phytotoxicity rating 0-100 at 14 days after application
# Experimental: A standard greenhouse herbicide activity screening system was used to evaluate the herbicidal efficacy and crop safety of these test compounds. […] At 14 days after application of the test materials, phytotoxicity ratings were recorded. […]

Look up Post-emerge Herbicidal Activity CASOB for this compound: Cc1c(Cl)cc(F)c(-n2c(=O)cc(C(F)(F)F)n(C)c2=O)c1NC(=O)SCc1ccccc1 [4-66]
90

Likewise for Cc1c(Cl)cc(F)c(-n2c(=O)cc(C(F)(F)F)n(C)c2=O)c1NC(=O)OCc1ccco1 [4-70] ?
90

Likewise for O=C(Nc1cc(Cl)ccc1N1C(=O)C2CCCCN2C1=O)c1ccc2ccccc2c1 (stereo not drawn) [12-8] ?
70

Likewise for O=C(Nc1cc(Cl)ccc1N1C(=O)C2=C(CCCC2)C1=O)c1ccc2ccccc2c1 [8-36] ?
95

Likewise for COc1ccccc1COC(=O)Nc1c(C)c(Cl)cc(F)c1-n1c(=O)cc(C(F)(F)F)n(C)c1=O [4-58] ?
100

Likewise for COc1c(Cl)cc(F)c(-n2nnn(CCCF)c2=O)c1NC(=O)c1ccc2ccccc2c1 [Compound 5-26] ?
100

Likewise for C=Cc1ccc(C(=O)Nc2c(OC)c(Cl)cc(F)c2N2C(=O)C3=C(CCCC3)C2=O)cc1 [8-30] ?
100

Likewise for Cc1c(Cl)cc(F)c(-n2c(=O)cc(C(F)(F)F)n(C)c2=O)c1NC(=O)OCc1ccc([N+](=O)[O-])cc1 [4-64] ?
100

Likewise for Nc1c(O)c(Cl)cc(F)c1N1C(=O)C2CCCCN2C1=S (single isomer, unassigned) [12-2] ?
95

---

# Tested on: field corn (Zea mays L., var. Dekalb 535, CORN)
# measurementDescription: Pre-emerge test, crop safety
# Format: in vivo
# condition: 63 g ai/ha; rated 14 days after application; 0 = no damage, 100 = complete death
valueType: Pre-emerge phytotoxicity rating (0-100), crop damage, CORN
Returns: the value as a bare number; no unit string appended.

Look up Pre-emerge phytotoxicity rating (0-100), crop damage, CORN for this compound: "COc1c(Cl)cc(F)c(-n2c(=O)cc(C(F)(F)F)n(C)c2=O)c1NC(=O)C=Cc1ccccc1"
0

Likewise for "COc1c(Cl)cc(F)c(-n2c(=O)cc(C(F)(F)F)n(C)c2=O)c1NC(=O)COCc1ccccc1" ?
10

Likewise for "COc1c(Cl)cc(F)c(-n2c(=S)cc(C(F)(F)F)n(C)c2=O)c1NC(=S)c1ccc(F)cc1F" ?
0

Likewise for "COc1c(Cl)cc(F)c(-n2c(=O)cc(C(F)(F)F)n(C)c2=O)c1NC(=O)COC(C)=O" ?
10

Likewise for "COc1c(Cl)cc(F)c(-n2c(=O)cc(C(F)(F)F)n(C)c2=O)c1NC(=O)c1ccccc1F" ?
70

Likewise for "COc1c(Cl)cc(F)c(-n2c(=O)cc(C(F)(F)F)n(C)c2=O)c1NC(=O)C=Cc1ccco1" ?
0

Likewise for "COc1c(Cl)cc(F)c(-n2c(=O)cc(C(F)(F)F)n(C)c2=O)c1NC(=O)c1ccc(C)c(C)c1" ?
40

Likewise for "COc1c(Cl)cc(F)c(-n2c(=O)cc(C(F)(F)F)n(C)c2=O)c1NC(=O)c1ccc(C#N)cc1" ?
90

Likewise for "COc1c(Cl)cc(F)c(-n2c(=O)cc(C(F)(F)F)n(C)c2=O)c1NC(=O)c1c(F)c(F)c(F)c(F)c1F" ?
0

Likewise for "COc1c(Cl)cc(F)c(-n2c(=O)cc(C(F)(F)F)n(C)c2=O)c1N(C(=O)COc1ccccc1)C(=O)COc1ccccc1" ?
0

Likewise for "COc1c(Cl)cc(F)c(-n2c(=O)cc(C(F)(F)F)n(C)c2=O)c1NC(=O)c1ccc(F)c(F)c1" ?
90

Likewise for "COc1c(Cl)cc(F)c(-n2c(=O)cc(C(F)(F)F)n(C)c2=O)c1NC(=O)c1ccc(-c2ccccc2)cc1" ?
0

Likewise for "COc1c(Cl)cc(F)c(-n2c(=O)cc(C(F)(F)F)n(C)c2=O)c1N(C(=O)c1ccc(F)c(F)c1)C(=O)c1ccc(F)c(F)c1" ?
0

Likewise for "COc1c(Cl)cc(F)c(-n2c(=O)cc(C(F)(F)F)n(C)c2=O)c1NC(=O)c1cccnc1" ?
70

Likewise for "COc1c(Cl)cc(F)c(-n2c(=O)cc(C(F)(F)F)n(C)c2=O)c1N(C(=O)c1ccc([N+](=O)[O-])cc1)C(=O)c1ccc([N+](=O)[O-])cc1" ?
0

---

# Tested on: johnsongrass (Sorghum halepense, SORHA)
# measurementDescription: Post-emerge test, greenhouse herbicide activity screening
# Assay type: in vivo
# condition: Rate 250 g ai/ha; rating scale 0-100 (0 no damage, 100 complete death); 14 days after application
valueType: Post-emerge Herbicidal Activity, phytotoxicity rating SORHA
Returns: the value as a bare number; no unit string appended.

Look up Post-emerge Herbicidal Activity, phytotoxicity rating SORHA for this compound: COc1c(Cl)cc(F)c(-n2c(=O)cc(C(F)(F)F)n(C)c2=O)c1CC(C)(Cl)C(=O)OCC(C)C (stereo not drawn) [14-40]
20

Likewise for COc1c(Cl)cc(F)c(-n2c(=O)cc(C(F)(F)F)n(C)c2=O)c1CC(Cl)C(=O)OCC(Br)CBr (single isomer, unassigned) [14-30] ?
50

Likewise for CCOC(=O)C(Br)Cc1c(OC)c(Cl)cc(F)c1-n1c(=O)cc(C(F)(F)F)n(C)c1=O (single isomer, unassigned) [14-32] ?
10

Likewise for COc1c(Cl)cc(F)c(-n2c(=O)cc(C(F)(F)F)n(C)c2=O)c1CC(Cl)C(=O)OCC(F)(F)C(F)(F)C(F)(F)F (single isomer, unassigned) [14-23] ?
50

Likewise for C#CCOC(=O)C(Cl)Cc1c(OC)c(Cl)cc(F)c1-n1c(=O)cc(C(F)(F)F)n(C)c1=O (single isomer, unassigned) [14-20] ?
90

Likewise for COc1c(Cl)cc(F)c(-n2c(=O)cc(C(F)(F)F)n(C)c2=O)c1CC(Cl)C(=O)OCC(F)(F)C(F)F (stereo not drawn) [14-22] ?
60

---

# System: ivyleaf morningglory (Ipomoea hederacea, IPOHE)
# measurementDescription: Post-emerge test, greenhouse herbicide activity screening
# Type: in vivo
# condition: post-emerge, 63 g ai/ha, 14 days after application, rating scale 0-100
Please respond with reported phytotoxicity rating IPOHE for every item in the list.
Returns: the value as a bare number; no unit string appended.

Look up phytotoxicity rating IPOHE for this molecule: COc1c(Cl)cc(F)c(-n2c(=O)cc(C(F)(F)F)n(C)c2=O)c1NC(=O)OCc1c(Cl)cccc1Cl [4-24]
100

Likewise for COc1c(Cl)cc(F)c(-n2c(=O)cc(C(F)(F)F)n(C)c2=O)c1NC(=O)c1ccc2c(c1)OCO2 [2-73] ?
100

Likewise for COc1c(Cl)cc(F)c(-n2c(=O)cc(C(F)(F)F)n(C)c2=O)c1NC(=O)OCc1ccc(OC(F)(F)F)cc1 [4-45] ?
95

Likewise for COc1c(Cl)cc(F)c(-n2c(=O)cc(C(F)(F)F)n(C)c2=O)c1NC(=O)c1cccc(Cl)c1 [2-54] ?
100

Likewise for COc1c(Cl)cc(F)c(-n2c(=O)cc(C(F)(F)F)n(C)c2=O)c1NC(=O)c1ccc(C#N)cc1 [2-67] ?
99

Likewise for COc1c(Cl)cc(F)c(-n2c(=O)cc(C(F)(F)F)n(C)c2=O)c1NC(=O)OCc1ccccc1C(F)(F)F [4-33] ?
100

Likewise for Nn1c(C(F)(F)F)cc(=O)n(-c2c(F)cc(Cl)c(O)c2NC(=O)c2ccc3ccccc3c2)c1=O [Compound 2-192] ?
50

---

# Tested on: field corn (Zea mays L., var. Dekalb 535, CORN)
# measurementDescription: Post-emerge test, crop safety
# Type: in vivo
# condition: post-emerge, 250 g ai/ha, 14 days after application, rating scale 0-100
We label by threshold. Values of CORN phytotoxicity rating (crop damage) strictly beneath 20 are yes (1). Values of 20 and up are no (0).

Confirm or reject: CORN phytotoxicity rating (crop damage) of "C=Cc1ccc(C(=O)Nc2c(OC)c(Br)cc(F)c2-n2c(=O)cc(C(F)(F)F)n(C)c2=O)cc1" lies strictly below 20
no (0)

Likewise for CCOC(=O)C(C)Oc1ccc(-n2c(=O)cc(C(F)(F)F)n(C)c2=O)c(NC(=O)c2ccc3ccccc3c2)c1 (centres unmarked) ?
yes (1)

Likewise for "Cn1c(C(F)(F)F)cc(=O)n(-c2ccc(C#N)cc2NC(=O)c2ccc3ccccc3c2)c1=O" ?
no (0)

Likewise for "Cn1c(C(F)(F)F)cc(=O)n(-c2ccccc2NC(=O)c2ccc3ccccc3c2)c1=O" ?
yes (1)

Likewise for "COc1ccccc1C=CC(=O)Nc1c(OC)c(Cl)cc(F)c1-n1c(=O)cc(C(F)(F)F)n(C)c1=O" ?
yes (1)

Likewise for "COc1c(Cl)cc(F)c(-n2c(=O)cc(C(F)(F)F)n(C)c2=O)c1NC(=O)C(C#N)=Cc1ccccc1" ?
yes (1)

Likewise for "COc1ccc(-n2c(=O)cc(C(F)(F)F)n(C)c2=O)c(NC(=O)c2ccc3ccccc3c2)c1" ?
no (0)

Likewise for COc1c(Cl)cc(F)c(-n2c(=O)cc(C(F)(F)F)n(C)c2=O)c1NC(=O)CCc1cc(C)ccc1C [2-130] ?
no (0)

Likewise for "Cn1c(C(F)(F)F)cc(=O)n(-c2c(F)cc(Cl)cc2NC2CC2)c1=O" ?
no (0)

Likewise for "Cn1c(C(F)(F)F)cc(=O)n(-c2ccc(C#N)cc2NC(=O)C=Cc2ccccc2)c1=O" ?
yes (1)
